Provide the reported log10 IC50 of each item.
test system: Plasmodium falciparum; assay: Antimalarial activity against chloroquine-sensitive Plasmodium falciparum 3D7 after 72 hrs by SYBR Green assay; details: 3D7, 72 h
Form field - Quantity: IC50; Unit: µg/mL; Scale: log10

Specify measured log10 IC50 for CCCC/N=C1\SC(=O)C(=O)N1CCNc1ccnc2cc(Cl)ccc12 .
-1.76

Specify measured log10 IC50 for O=C1C(=O)N(c2ccccc2)C(=S)N1CCNc1ccnc2cc(Cl)ccc12 .
-0.92

Specify measured log10 IC50 for O=C1S/C(=N\c2ccccc2)N(CCNc2ccnc3cc(Cl)ccc23)C1=O .
-1.53

Specify measured log10 IC50 for CCCCN1C(=O)C(=O)N(CCCNc2ccnc3cc(Cl)ccc23)C1=S .
-1.16

Specify measured log10 IC50 for CCCCNC(=S)NCCCNc1ccnc2cc(Cl)ccc12 .
-1.93

Specify measured log10 IC50 for O=C1S/C(=N\c2ccccc2Cl)N(CCCNc2ccnc3cc(Cl)ccc23)C1=O .
-1.76

Specify measured log10 IC50 for C=CCN1C(=O)C(=O)N(CCCNc2ccnc3cc(Cl)ccc23)C1=S .
-1.26

Specify measured log10 IC50 for CCCCNC(=S)NCCNc1ccnc2cc(Cl)ccc12 .
-2.22

Specify measured log10 IC50 for O=C1C(=O)N(c2ccccc2)C(=S)N1CCCNc1ccnc2cc(Cl)ccc12 .
-0.82

Specify measured log10 IC50 for S=C(NCCCNc1ccnc2cc(Cl)ccc12)Nc1ccccc1Cl .
-1.99

Specify measured log10 IC50 for S=C(NCCNc1ccnc2cc(Cl)ccc12)Nc1ccccc1 .
-2.04

Specify measured log10 IC50 for C=CC/N=C1\SC(=O)C(=O)N1CCCNc1ccnc2cc(Cl)ccc12 .
-0.95

Specify measured log10 IC50 for C=CCN1C(=O)C(=O)N(CCNc2ccnc3cc(Cl)ccc23)C1=S .
-0.98

Specify measured log10 IC50 for O=C1S/C(=N\c2ccccc2)N(CCCNc2ccnc3cc(Cl)ccc23)C1=O .
-1.96

Specify measured log10 IC50 for C=CC/N=C1\SC(=O)C(=O)N1CCNc1ccnc2cc(Cl)ccc12 .
-1.49

Specify measured log10 IC50 for C=CCNC(=S)NCCCNc1ccnc2cc(Cl)ccc12 .
-1.38

Specify measured log10 IC50 for C=CCNC(=S)NCCNc1ccnc2cc(Cl)ccc12 .
-1.58

Specify measured log10 IC50 for O=C1S/C(=N\c2ccccc2Cl)N(CCNc2ccnc3cc(Cl)ccc23)C1=O .
-1.92

Specify measured log10 IC50 for CCCC/N=C1\SC(=O)C(=O)N1CCCNc1ccnc2cc(Cl)ccc12 .
-1.96

Specify measured log10 IC50 for CCCCN1C(=O)C(=O)N(CCNc2ccnc3cc(Cl)ccc23)C1=S .
-1.48

Specify measured log10 IC50 for O=C1C(=O)N(c2ccccc2Cl)C(=S)N1CCCNc1ccnc2cc(Cl)ccc12 .
-1.40

Specify measured log10 IC50 for S=C(NCCNc1ccnc2cc(Cl)ccc12)Nc1ccccc1Cl .
-1.69

Specify measured log10 IC50 for O=C1C(=O)N(c2ccccc2Cl)C(=S)N1CCNc1ccnc2cc(Cl)ccc12 .
-0.70

Specify measured log10 IC50 for S=C(NCCCNc1ccnc2cc(Cl)ccc12)Nc1ccccc1 .
-2.00
